biological target: T1, human glucagon receptor (human, UniProt P47871 26-477); assay: SPA competition vs [125I]-Gcg, hGcgR membranes
T1 construct: whole, on cells; also called hGCGR; hGcgR
T1 sequence (P47871 26-477): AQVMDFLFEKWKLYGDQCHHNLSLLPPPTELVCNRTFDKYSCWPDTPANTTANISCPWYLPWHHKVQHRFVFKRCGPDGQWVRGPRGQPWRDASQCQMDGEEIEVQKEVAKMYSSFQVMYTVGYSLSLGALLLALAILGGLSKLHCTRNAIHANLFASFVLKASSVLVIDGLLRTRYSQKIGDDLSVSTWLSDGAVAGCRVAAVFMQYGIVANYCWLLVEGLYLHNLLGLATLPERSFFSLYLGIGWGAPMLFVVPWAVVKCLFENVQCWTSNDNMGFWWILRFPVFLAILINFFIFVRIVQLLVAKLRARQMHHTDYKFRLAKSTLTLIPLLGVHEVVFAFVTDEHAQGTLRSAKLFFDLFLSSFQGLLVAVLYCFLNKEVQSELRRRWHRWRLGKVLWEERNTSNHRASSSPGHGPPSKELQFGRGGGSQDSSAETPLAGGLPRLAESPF
Endpoint name: pKi
Keep it numeric: pKi is minus log10 of the concentration in mol/L.

Before answering, review these 3 worked examples.
Binder	pKi
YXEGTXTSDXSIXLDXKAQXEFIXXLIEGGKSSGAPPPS (Aib2, αMeF(2F)6, 4Pal10, αMeL13, Orn16, K17(Z1), Aib20, D-Glu24, αMeY25, K31(Z1), C-term NH2; Z1=AEEA-(εK)-(γ-Glu)-CO-(CH2)12-CO2H)	6.06
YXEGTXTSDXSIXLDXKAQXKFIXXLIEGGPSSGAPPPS (Aib2, αMeF(2F)6, 4Pal10, αMeL13, Orn16, K17(Z1), Aib20, K21(Z1), D-Glu24, αMeY25, C-term NH2; Z1=AEEA2-(γ-Glu)-CO-(CH2)10-CH3)	8.08
YXEGTXTSDYXIXLDXIAQXXFIKXLIKGGPSSGAPPPS (Aib2, αMeF(2F)6, Aib11, αMeL13, Orn16, Aib20, Orn21, K24(Z1), αMeY25, K28(Z1), C-term NH2; Z1=AEEA3-(γ-Glu)-(10-(4-carboxyphenoxy)decanoyl))	7.70

Query :: Item under review: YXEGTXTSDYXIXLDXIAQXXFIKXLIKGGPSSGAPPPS (Aib2, αMeF(2F)6, Aib11, αMeL13, Orn16, Aib20, Orn21, K24(Z1), αMeY25, K28(Z1), C-term NH2; Z1=AEEA3-(γ-Glu)-CO-(CH2)12-CO2H) . Reported pKi?
Result :: 7.30

Query :: Item under review: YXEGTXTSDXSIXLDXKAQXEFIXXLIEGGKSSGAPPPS (Aib2, αMeF(2F)6, 4Pal10, αMeL13, Orn16, K17(Z1), Aib20, D-Glu24, αMeY25, K31(Z1), C-term NH2; Z1=(εK)-(γ-Glu)-CO-(CH2)12-CO2H) . Reported pKi?
Result :: 6.76

Query :: Item under review: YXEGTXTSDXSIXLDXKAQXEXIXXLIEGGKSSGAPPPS (Aib2, αMeF6, 4Pal10, αMeL13, Orn16, K17(Z1), Aib20, αMeF22, D-Glu24, αMeY25, K31(Z1), C-term NH2; Z1=AEEA2-(γ-Glu)-CO-(CH2)12-CO2H) . Reported pKi?
Result :: 6.66

Query :: Item under review: YXEGTXTSDXSIXLDXIAQXEFIXXLIKGGKSSGAPPPS (Aib2, αMeF(2F)6, 4Pal10, αMeL13, Orn16, Aib20, D-Glu24, αMeY25, K28(Z1), K31(Z1), C-term NH2; Z1=AEEA2-(γ-Glu)-CO-(CH2)12-CO2H) . Reported pKi?
Result :: 6.86

Query :: Item under review: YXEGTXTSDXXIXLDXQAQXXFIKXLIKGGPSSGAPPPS (Aib2, αMeF(2F)6, 4Pal10, Aib11, αMeL13, Orn16, Aib20, Orn21, K24(Z1), αMeY25, K28(Z1), C-term NH2; Z1=PEG3-(γ-Glu)-CO-(CH2)12-CO2H) . Reported pKi?
Result :: 6.77

Query :: Item under review: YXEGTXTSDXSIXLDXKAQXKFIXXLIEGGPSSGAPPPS (Aib2, αMeF(2F)6, 4Pal10, αMeL13, Orn16, K17(Z1), Aib20, K21(Z1), D-Glu24, αMeY25, C-term NH2; Z1=AEEA2-(γ-Glu)-CO-(CH2)14-CH3) . Reported pKi?
Result :: 9.53

Query :: Item under review: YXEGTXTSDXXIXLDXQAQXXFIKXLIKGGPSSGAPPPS (Aib2, αMeF(2F)6, 4Pal10, Aib11, αMeL13, Orn16, Aib20, Orn21, K24(Z1), αMeY25, K28(Z1), C-term NH2; Z1=AEEA2-(γ-Glu)2-CO-(CH2)12-CO2H) . Reported pKi?
Result :: 6.42

Query :: Item under review: YXEGTXTSDXSIXLDXIAQXEFIKXLIKGGPSSGAPPPS (Aib2, αMeF(2F)6, 4Pal10, αMeL13, Orn16, Aib20, K24(Z1), αMeY25, K28(Z1), C-term NH2; Z1=AEEA2-(γ-Glu)-CO-(CH2)12-CO2H) . Reported pKi?
Result :: 6.82

Cited source for all entries: patent US20230265151A1
